Target: cynomolgus BCMA (cynomolgus (given as cyBCMA, Cyno))
Sequence (chain, as listed by the source): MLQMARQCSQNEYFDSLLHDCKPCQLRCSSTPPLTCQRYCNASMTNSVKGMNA
Assay: SPR, IgG immobilized, cyno BCMA analyte, 37 C

| binder | kon |
| --- | --- |
| A02_Rd4_6nM_C19 (antibody, V domains shown) VH: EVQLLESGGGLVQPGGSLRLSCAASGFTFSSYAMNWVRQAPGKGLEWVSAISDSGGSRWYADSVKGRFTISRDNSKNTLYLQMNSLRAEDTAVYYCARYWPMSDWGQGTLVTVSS VL: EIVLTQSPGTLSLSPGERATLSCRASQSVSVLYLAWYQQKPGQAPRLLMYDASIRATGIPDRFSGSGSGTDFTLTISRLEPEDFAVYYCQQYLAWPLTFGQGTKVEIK | 2.54e+06 M⁻¹ s⁻¹ |

Origin of the recorded values: patent US20240018252A1
